- PROTOCOL TEXT: Rectal circulation: Cephalothin disappeared by absorption (Examples 10-14, 16-18)
- MEASUREMENT SETUP: rat, in vivo
REPORTED PROPERTY: Cephalothin disappeared by absorption, Osmotic pressure (%) X 1
Your answer should be a plain number; it is taken to be in %.

Use these answered entries as a reference point.
O=C([O-])C(=O)C(=O)[O-].[Na+].[Na+] [Sodium ketomalonate, sodium ketomalonate]    8.4
O=C(O)CCC(=O)O    8.2
CC(=O)C(=O)[O-].[Na+] [Sodium pyruvate, sodium pyruvate]    7.0
O=C(O)CN(CC(=O)O)C1CCCCC1N(CC(=O)O)CC(=O)O (stereo not drawn) [CyDTA, trans-cyclohexanediaminetetraacetic acid]    8.1

Shift focus to the following entry.
Tell me its Cephalothin disappeared by absorption, Osmotic pressure (%) X 1 given O=C(O)CCCCCC(=O)O as the entry.
5.1
